Measured pIC50 values are reported for all entries that follow.
- system: p38α (Homo sapiens, UniProt Q16539)
- Construct: p38 MAP Kinases are recombinant human full-length proteins with an amino-terminal GST fusion; GST (N); purchased Upstate Biotechnology Inc; host or cells: E. coli
- Sequence (Q16539 whole entry, the tested form may be a part): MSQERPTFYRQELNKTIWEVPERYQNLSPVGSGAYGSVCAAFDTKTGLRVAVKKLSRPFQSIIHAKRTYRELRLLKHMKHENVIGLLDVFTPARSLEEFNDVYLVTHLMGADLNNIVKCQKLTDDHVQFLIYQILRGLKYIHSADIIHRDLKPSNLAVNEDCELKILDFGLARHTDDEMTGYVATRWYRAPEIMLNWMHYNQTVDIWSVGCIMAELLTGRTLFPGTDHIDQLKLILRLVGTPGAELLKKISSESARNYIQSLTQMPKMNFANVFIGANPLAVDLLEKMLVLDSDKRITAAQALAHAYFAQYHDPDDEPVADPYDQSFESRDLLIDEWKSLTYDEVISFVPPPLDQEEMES
- experimental.protocol: p38 MAP Kinase assay: inhibition of ATF2 phosphorylation, ELISA
- Assay type: biochemical
- setup.conditions: ATF2 phosphorylation; read-out: [ENZ] P38 ALPHA, IC50, ELISA
Units for pIC50: none; it is -log10 of a concentration expressed in mol/L.

Previously resolved entries follow.
smiles.text: CSc1ccccc1-c1cccc(C(=O)Nc2ccc(OCCN3CCOCC3)c3ccccc23)c1
pIC50: 5.56
--
smiles.text: O=C(Nc1ccc(OCCN2CCOCC2)c2ccccc12)c1cccc(Oc2ccccc2)c1
pIC50: 5.64
--
smiles.text: COc1ccccc1-c1cccc(C(=O)Nc2ccc(OCCN3CCOCC3)c3ccccc23)c1
pIC50: 5.88

Here's the next entry for you.
Given the compound `O=C(Nc1ccc(OCCCN2CCCC2=O)c2ccccc12)c1cc(F)cc(N2CCCCC2)c1` , what is its reported pIC50? 6.23

====

- system: p38α (Homo sapiens)
- Construct: p38 MAP Kinases are recombinant human full-length proteins with an amino-terminal GST fusion; GST (N)
- experimental.protocol: p38 MAP Kinase assay: inhibition of ATF2 phosphorylation, ELISA
- setup.conditions: ATF2 phosphorylation; read-out: [ENZ] P38 ALPHA, IC50, ELISA
Measured IC50 values are reported for all entries that follow.

Previously resolved entries follow.
smiles.text: O=C(Nc1ccc(OCCN2CCOCC2)c2ccccc12)c1cccc(CN2CCCCC2)c1
system: p38α (Homo sapiens)
value.reported: > 10 µM

smiles.text: C=Cc1ccc(-c2cccc(C(=O)Nc3ccc(OCCN4CCOCC4)c4ccccc34)c2)cc1
system: p38α (Homo sapiens)
value.reported: > 10 µM

Given the molecule `COc1ccc(C(C)C)cc1-c1cccc(C(=O)Nc2ccc(OCCN3CCOCC3)c3ccccc23)c1` , what is its reported IC50? > 10 µM

====

- system: p38α (Homo sapiens)
- Construct: p38 MAP Kinases are recombinant human full-length proteins with an amino-terminal GST fusion; GST (N)
- experimental.protocol: p38 MAP Kinase assay: inhibition of ATF2 phosphorylation, ELISA
- setup.conditions: ATF2 phosphorylation; read-out: [ENZ] P38 ALPHA, IC50, ELISA
Measured IC50 values are reported for all entries that follow.

Previously resolved entries follow.
molecule: CN1CCC(Nc2nccc(Oc3ccc(NC(=O)c4cc(F)cc(N5CCOCC5)c4)c4ccccc34)n2)CC1
IC50: 0.0078 µM

molecule: O=C(Nc1ccc(OCCN2C(=O)CCC2=O)c2ccccc12)c1cc(F)cc(N2CCOCC2)c1
IC50: > 10 µM

molecule: CC1CN(c2cc(F)cc(C(=O)Nc3ccc(OCCN4CCOCC4)c4ccccc34)c2)CC(C)O1 (stereo not shown)
IC50: > 10 µM

Identify the measured IC50 of `O=C(Nc1ccc(OCCN2CCOCC2)c2ccccc12)c1cccc(-c2ccc(C(F)(F)F)cc2)c1` for p38α (Homo sapiens). > 10 µM

====

- system: p38α (Homo sapiens)
- Construct: p38 MAP Kinases are recombinant human full-length proteins with an amino-terminal GST fusion; GST (N)
- experimental.protocol: p38 MAP Kinase assay: inhibition of ATF2 phosphorylation, ELISA
- setup.conditions: ATF2 phosphorylation; read-out: [ENZ] P38 ALPHA, IC50, ELISA
attribute.measured: IC50 (µM)
Supply the numeric figure in µM, leaving out any unit text.

Previously resolved entries follow.
compound: CC1CCN(c2cc(F)cc(C(=O)Nc3ccc(Oc4ccnc(NC5CCCC5)n4)c4ccccc34)c2)CC1 [Compound B266]
display.unit: µM
value.reported: 0.363

compound: CCc1ccccc1-c1cccc(C(=O)Nc2ccc(OCCN3CCOCC3)c3ccccc23)c1 [Compound B291]
display.unit: µM
value.reported: 9.19

Here's the next entry for you.
Given the compound O=C(Nc1ccc(CN2CCOCC2)c2ccccc12)c1cc(F)cc(N2CCOCC2)c1 [Compound B316] , what is its reported IC50? 1.2
